The measured values listed here are drawn from the supplement of paper PMC9334596.

System: mPer2Luc MEF
assay name: PER2::LUC luminescence relative to vehicle control (fold of vehicle); higher = higher PER2::LUC reporter signal
assay context: time after treatment: 30-hour; concentration: 0.37μM
reported endpoint: PER2::LUC luminescence
Number only, no unit.

Could you share which PER2::LUC luminescence value was measured for CCc1nc(-c2cccc(C)c2)c(-c2ccnc(NC(=O)c3ccccc3)c2)s1 ?
0.929

Query O=C(/C=C/c1cccnc1)NCCCCC1CCN(C(=O)c2ccccc2)CC1 next
0.643

Query Cc1nc(Nc2ncc(C(=O)Nc3c(C)cccc3Cl)s2)cc(N2CCN(CCO)CC2)n1 next
0.366

Query Nc1nc(N)c2nc(-c3cccc(O)c3)cnc2n1 next
0.88

Query O=C(Nc1cccc(Cl)c1)c1ccccn1 next
1.29

Query CCOC(=O)N1c2ccc(C(F)(F)F)cc2[C@@H](N(Cc2cc(C(F)(F)F)cc(C(F)(F)F)c2)C(=O)OC)C[C@H]1CC next
0.917

Query CCOc1cc2ncc(C#N)c(Nc3ccc(F)c(Cl)c3)c2cc1NC(=O)/C=C/CN(C)C [Pelitinib (EKB-569)] next
0.815

Query C=CC(=O)Nc1cccc(Nc2nc(Nc3ccc(Oc4ccnc(C(=O)NC)c4)cc3)ncc2F)c1 next
0.966

Query CN1CCN(S(=O)(=O)c2ccc(-c3cnc(N)c(C(=O)Nc4cccnc4)n3)cc2)CC1 next
1.16
